tested on: Saccharomyces cerevisiae BY4741 SeMeCo community; experiment: mean cell size (pixel area) (pixels); higher = larger cells; settings: 10 µM; 24 h; SM minimal medium
Where a name gives a salt, the structure may show the parent alone.
The reader will find reported mean cell size values listed item by item below.

{"columns": ["COMPOUND", "TARGET_ENTITY", "mean cell size"],
 "data": [
  ["O=C1c2cccc3c2[C@H](CCC3)CN1[C@@H]1CN2CCC1CC2 [Palonosetron]", "Saccharomyces cerevisiae BY4741 SeMeCo community", 12.2],
  ["Cn1c(=O)c2[nH]cnc2n(C)c1=O", "Saccharomyces cerevisiae BY4741 SeMeCo community", 12.5],
  ["OC(c1ccccc1)(c1ccccc1)C12CC[N+](CCOCc3ccccc3)(CC1)CC2 [Umeclidinium bromide]", "Saccharomyces cerevisiae BY4741 SeMeCo community", 12.5],
  ["CN(C)CCCN1c2ccccc2Sc2ccc(Cl)cc21 [Chlorpromazine HCl]", "Saccharomyces cerevisiae BY4741 SeMeCo community", 12.3],
  ["CCN1CCN(c2cc3c(cc2F)c(=O)c(C(=O)O)cn3C2CC2)CC1", "Saccharomyces cerevisiae BY4741 SeMeCo community", 12]
]}

Exercise: Item under review: `CCC(=O)O[C@@H]1CC(=O)O[C@H](C)C/C=C/C=C/[C@H](O)[C@H](C)C[C@H](CC=O)[C@H](O[C@@H]2O[C@H](C)[C@@H](O[C@H]3C[C@@](C)(O)[C@@H](OC(=O)CC)[C@H](C)O3)[C@H](N(C)C)[C@H]2O)[C@H]1OC` . Reported mean cell size?
Solution: 12.3

Exercise: Note, next up: CC(=O)N1CCN(c2ccc(OCC3COC(Cn4ccnc4)(c4ccc(Cl)cc4Cl)O3)cc2)CC1 (configuration not stated)
Solution: 11.9

Exercise: One more compound: NC(=NCCCCCCN=C(N)N=C(N)Nc1ccc(Cl)cc1)N=C(N)Nc1ccc(Cl)cc1 [Chlorhexidine?2HCl]
Solution: 11.4

Exercise: Now consider `Oc1c(Cl)cc(Cl)c2cccnc12` and answer again.
Solution: 13.6

Exercise: Same read-out for `CC(=O)OCC1=C(C(=O)O)N2C(=O)[C@@H](NC(=O)CSc3ccncc3)[C@H]2SC1` ?
Solution: 12.7
